These data points were gathered from ChEMBL document CHEMBL1126830.

- Assayed Target: Gastrin/cholecystokinin type B receptor (Mus musculus, UniProt P56481)
- Sequence (P56481 whole entry): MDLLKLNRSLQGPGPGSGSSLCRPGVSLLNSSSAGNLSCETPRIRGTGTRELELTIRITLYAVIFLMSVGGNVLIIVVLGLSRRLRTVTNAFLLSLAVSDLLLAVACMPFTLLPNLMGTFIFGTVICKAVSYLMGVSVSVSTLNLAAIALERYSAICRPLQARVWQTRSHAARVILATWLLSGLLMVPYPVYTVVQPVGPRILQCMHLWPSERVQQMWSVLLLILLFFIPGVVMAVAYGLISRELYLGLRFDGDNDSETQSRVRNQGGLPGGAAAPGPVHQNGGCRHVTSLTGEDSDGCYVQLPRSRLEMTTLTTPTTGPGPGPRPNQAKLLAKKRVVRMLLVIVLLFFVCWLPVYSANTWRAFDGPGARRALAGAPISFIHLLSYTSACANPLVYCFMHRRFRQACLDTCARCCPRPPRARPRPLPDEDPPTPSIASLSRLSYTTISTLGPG
pKi: −log10 of the molar value.
Measure Name: pKi

[[record]]
compound = "CC(Cc1c[nH]c2ccccc12)(C(=O)OC1[C@H]2C[C@@H]3C[C@@H](C[C@H]1C3)C2)C(=O)N(CCc1ccc(Cl)cc1Cl)CC(=O)O (stereo partly specified)"
measure_name = "pKi"
endpoint_value = 7.85


----------
Record set of pKi for target or system Cholecystokinin receptor type A (Rattus norvegicus).
pKi: −log10 of the molar value.
Measure Name: pKi

[[record]]
compound = "CC(Cc1c[nH]c2ccccc12)(NC(=O)OC1[C@H]2C[C@@H]3C[C@@H](C[C@H]1C3)C2)C(=O)N(CCc1ccc(Cl)cc1)CC(=O)O (stereo in doubt; 26A)"
measure_name = "pKi"
endpoint_value = 5.91

[[record]]
compound = "CC(Cc1c[nH]c2ccccc12)(NC(=O)OC1[C@H]2C[C@@H]3C[C@@H](C[C@H]1C3)C2)C(=O)N(CCc1ccc(Cl)cc1)CC(=O)O (stereo in doubt; 26)"
measure_name = "pKi"
endpoint_value = 5.87


----------
- Assayed Target: Gastrin/cholecystokinin type B receptor (Rattus norvegicus, UniProt P30553)
- Sequence (P30553 whole entry): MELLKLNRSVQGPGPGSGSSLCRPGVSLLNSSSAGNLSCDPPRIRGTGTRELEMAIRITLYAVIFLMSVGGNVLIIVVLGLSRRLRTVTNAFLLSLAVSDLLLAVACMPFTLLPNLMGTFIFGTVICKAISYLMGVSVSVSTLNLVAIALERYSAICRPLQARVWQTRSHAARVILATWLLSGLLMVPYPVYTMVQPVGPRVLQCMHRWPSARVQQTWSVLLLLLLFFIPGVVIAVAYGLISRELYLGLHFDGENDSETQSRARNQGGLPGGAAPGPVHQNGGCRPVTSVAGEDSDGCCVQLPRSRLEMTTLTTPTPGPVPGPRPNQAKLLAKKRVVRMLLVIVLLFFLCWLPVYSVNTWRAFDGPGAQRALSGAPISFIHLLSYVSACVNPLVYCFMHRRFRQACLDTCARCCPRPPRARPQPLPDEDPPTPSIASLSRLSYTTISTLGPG
Measure Name: Ki (nM)

[[record]]
compound = "CC(Cc1c[nH]c2ccccc12)(C(=O)OC1[C@H]2C[C@@H]3C[C@@H](C[C@H]1C3)C2)C(=O)N(CCc1ccc(Cl)cc1Cl)CC(=O)O (stereo partly specified)"
endpoint_value = 28

